Entries and their viability (% of control)
test: Viability qHTS for spleen associated tyrosine kinase inhibitor (SYKi) naive MV4-11 cells (AID 1963823); details: MV4-11 AML viability, CellTiter-Glo luminescence, 72 h; series mostly up to 45 µM; also: nearly all actives have a fitted effect of over 40% in size
Records with an inconclusive call do not appear. Activity calls are given as the source filed them. Calls follow the shape of the dose curve; as a rule, active = well fitted cell-killing curve with a large enough effect; inconclusive = small, poorly fitted or top-dose-only effect, or effect the other way; inactive = no such curve, though single readings can be large or run the other way.

### Prompt What viability (% of control) value was documented for this molecule, `CCCCCCCCCCCCC/C=C/[C@@H](O)[C@H](CO)N(C)C` ?
### Response 70.8% [at 4.97 µM] (inactive)

### Prompt C/C=C(/C)C(=O)OC1CC(C)(C)CC2C3=CCC4C5(C)CCC(OC6OC(C)C(OC7OC(C(=O)O)C(O)C(OC8OC(CO)C(O)C(O)C8OC8OC(CO)C(O)C(O)C8O)C7O)C(O)C6O)C(C)(C)C5CCC4(C)C3(C)C(OC(=O)/C=C/C=C/C=C/CCC)C(OC(C)=O)C12CO (centres undefined) , same question.
### Response 68.8% [at 9.25 µM] (inactive)

### Prompt Entry to check: CC1OC(OC2C(CO)OC(OCC3OC(OC(=O)C45CCC(C)(C)CC4C4=CCC6C7(C)CCC(OC8OC(C(=O)O)C(O)C(OC9OC(CO)C(O)C(O)C9O)C8O)C(C)(C)C7CCC6(C)C4(C)CC5)C(O)C(O)C3O)C(O)C2O)C(O)C(O)C1O (centres undefined)
### Response 92.6% [at 9.25 µM] (inactive)

New cases:
### Prompt Requested read-out: viability (% of control). Entry: `Cc1cc(O)cc2c1[C@]1(C)CC[C@H]3C(C)(C)CCC[C@]3(C)[C@H]1C2`
### Response 65.3% [at 4.97 µM] (inactive)

* * *

test: Viability qHTS for spleen associated tyrosine kinase inhibitor (SYKi) drug resistant MV4-11 cells (AID 1963824); settings: SYKi-resistant MV4-11 viability, CellTiter-Glo, 72 h; series mostly up to 45 µM; also: nearly all actives have a fitted effect of over 35% in size
Records with an inconclusive call do not appear. Activity calls are given as the source filed them. Calls come from the whole dose curve; as a rule, active = well fitted cell-killing curve with a large enough effect; inconclusive = small, poorly fitted or top-dose-only effect, or effect the other way; inactive = no such curve, though single readings can be large or run the other way.
Bench note: report the call from active, inactive

### Prompt Given `O=C(Nc1ncc(SCCN2CCCC2)s1)[C@]1(c2ccc(S(=O)(=O)C3CC3)cc2)C[C@@H]1C1CCCCC1` , state the outcome it received in this test.
### Response active

### Prompt Quick one: `C[C@@]1(O)[C@H](O)[C@@H](CO)O[C@H]1n1cnc2c(=O)[nH]c(N)nc21`
### Response inactive

### Prompt // repeat for `O=C(Nc1cccc(Br)c1)c1cccc(S(=O)(=O)N2CCCCCC2)c1` and report
### Response active

### Prompt Same question, `C[C@@H]1O[C@@H](O[C@H]2[C@H](Oc3cc(O)c(C(=O)CCc4ccc(O)cc4)c(O)c3)O[C@H](CO)[C@@H](O)[C@@H]2O)[C@H](O)[C@H](O)[C@H]1O` this time
### Response inactive

### Prompt What do we get for `CN(C)CCCNc1c2ccccc2nc2c1[nH]c1ccccc12` ?
### Response active

### Prompt Also need C=C1C(O)C[C@@H]2C(C(=O)O)=CO[C@@H](O[C@@H]3O[C@H](CO)[C@@H](O)[C@H](O)[C@H]3OC(=O)c3ccc(O)cc3)[C@H]12 (stereo partly specified) , thanks.
### Response inactive

### Prompt Here is the next compound: NC(Cc1c[nH]c2ccccc12)C(=O)NC(CCC(=O)O)C(=O)O (stereo unspecified)
### Response inactive

### Prompt What do you get for `COc1cccc(C(=O)NCCNc2nc3cc(C)cc(C)c3cc2C#N)c1` ?
### Response inactive

### Prompt Ok, now `Fc1ccc(C(c2ccc(F)cc2)N2CCN(C/C=C/c3ccccc3)CC2)cc1`
### Response active

### Prompt Also `Cc1c(C)n(Cc2ccccc2)c2ccc(C(=O)OCCN(C)C)cc12` ?
### Response active

More entries:
### Prompt Test call for this compound, please: `C[C@@H](CN1CCC(n2c(=O)[nH]c3cc(Cl)ccc32)CC1)NC(=O)c1ccc2ccccc2c1`
### Response active

### Prompt Also check COc1cc(Nc2nc3c(s2)CCCC3c2ccc(F)cc2)ccc1-n1cnc(C)c1 (stereo unspecified)
### Response active

### Prompt Now the same for `CC(=O)c1ccc(S(=O)(=O)NC(=O)NC2CCCCC2)cc1`
### Response inactive

* * *

test: Quantitative highthroughput screen to assess conditional lethalithy of P12 Ichikawa cells grown in RPMI1640 with untreated serum (RPMI+s) (AID 1963881); settings: ATP luminescence, 48 h; viability; series mostly up to 45.8 µM; also: nearly all actives have a fitted effect of over 35% in size;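 as to viability: 100% = DMSO wells and 0% = empty wells without cells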
Inconclusive results are not listed. The source made the active and inactive calls. The call rests on the fitted dose curve; in most records, active means well fitted cell-killing curve with a large enough effect; inconclusive means small, poorly fitted or top-dose-only effect; inactive means flat fitted curve, though single readings scatter.
Reply using exactly one outcome from Y = active, N = inactive

### Prompt Which outcome was entered for the compound `CC(=Cc1ccccc1)C=C1SC(=S)N(CC(=O)O)C1=O` in this test?
### Response N

### Prompt Param item: CCOC(=O)C1=C(C)NC2=C(C(=O)CC(C)(C)C2)C1c1ccc(-c2ccccc2)cc1 (configuration not stated)
### Response N

### Prompt // same read-out, input: Cc1ccccc1C(C(=O)NC1CCCCC1)N(C(=O)Cn1ccnc1C)c1cccc(F)c1 (configuration not stated)
### Response N

### Prompt For `COc1ccc(-n2nc(C(N)=O)c3c2C(=O)N(c2ccc(N4CCCCC4=O)cc2)CC3)cc1` then?
### Response Y

### Prompt Lookup `c1coc(CNc2ncnc3nc[nH]c23)c1`
### Response N

### Prompt Can you handle `Cn1cc(-c2[nH]c3cc(NC(=O)[C@H](N)C4CCCCC4)cc4c3c2C=NNC4=O)cn1` next?
### Response Y

### Prompt Follow-up entry: `CCCCCN=C(N)NN=Cc1c[nH]c2ccc(OC)cc12`
### Response Y

### Prompt What would you report for `CN(C)CCCN=c1c2ccccc2n(C)c2[nH]c(=O)n(C)c(=O)c12` ?
### Response Y

New cases:
### Prompt Just curious, what result did `CCn1cc(-c2ccnc3[nH]c(-c4cccc(CN(C)C)c4)cc23)c(-c2ccc(NC(=O)N(C)C)cc2)n1` get here?
### Response Y

### Prompt What do you have for COc1ccccc1OCCNCC(O)COc1cccc2[nH]c3ccccc3c12 (configuration not stated) ?
### Response N

### Prompt Next entry: `O=C(CCCN1CCC(O)(c2ccc(Cl)cc2)CC1)c1ccc(F)cc1`
### Response N

### Prompt How about `CCOc1cc2ncc(C#N)c(Nc3ccc(OCc4ccccn4)c(Cl)c3)c2cc1NC(=O)C=CCN(C)C` ?
### Response Y

### Prompt Next entry: `CCCCCCCCCCCCCCCCCCCCCCO`
### Response N

### Prompt Could you do the same for `COc1nc(N)nc2c1ncn2[C@@H]1O[C@H](CO)[C@@H](O)[C@@H]1O` , please?
### Response N

### Prompt Thanks! And `Cc1oncc1C(=O)Nc1ccc(C(F)(F)F)cc1` ?
### Response N

### Prompt Next compound: `CN(C)CCOC(c1ccccc1)c1ccccc1`
### Response N

### Prompt Another compound to look at: `OCc1ccc(-c2ccc(-c3ccc(CO)s3)o2)s1`
### Response N

### Prompt Let us now turn to CC(C)C1CCC(C(=O)N[C@H](Cc2ccccc2)C(=O)O)CC1 (some centres not stated)
### Response N

### Prompt # repeat for `Cc1coc2c1C(=O)C(=O)c1c-2ccc2c1CCCC2(C)C`
### Response N

### Prompt What do we get for `CCN(CC)CCNC(=O)c1ccc2nc(-c3ccccc3)c(-c3ccc(CN4CCC(n5c(=O)[nH]c6ccccc65)CC4)cc3)nc2c1` ?
### Response Y

### Prompt And for Cc1ccccc1N1C(=O)c2cc(S(N)(=O)=O)c(Cl)cc2NC1C (configuration not stated) ?
### Response N

### Prompt Try `CCOC(=O)c1c(C)n(C)c2ccc(O)cc12` next.
### Response N

* * *

assay: Quantitative highthroughput screen to assess conditional lethalithy of SEM cells grown in RPMI1640 with unreated serum (RPMI+s) (AID 1963883); details: SEM B-ALL cells, CellTiter-Glo viability, 48 h; series mostly up to 45.8 µM; also: nearly all actives have a fitted effect of over 35% in size;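 as to viability: 100% = DMSO wells and 0% = empty wells without cells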
Records with an inconclusive call do not appear. Active and inactive are the calls of the source. Calls follow the shape of the dose curve; as a rule, active = well fitted cell-killing curve with a large enough effect; inconclusive = small, poorly fitted or top-dose-only effect, or effect the other way; inactive = no such curve, though single readings can be large or run the other way.
Permitted responses: active, inactive

Example entries begin here.
### Prompt Hi team, can someone confirm the assay call for `CC(C)C[C@@H](N)[C@H](O)C(=O)N[C@H](C(=O)N[C@H](C(=O)N[C@@H](CC(=O)O)C(=O)O)C(C)C)C(C)C` ?
### Response inactive

### Prompt For CC(NCc1ccc2c(c1)nc(NC(=O)c1ccc(-c3cn[nH]c3)s1)n2CC(C)(C)O)C(C)(C)C (centres undefined) then?
### Response active

New cases:
### Prompt Hello, I am checking results. What call was entered for `COC(=O)C=CC(=O)OC` ?
### Response active

* * *

experiment: Quantitative highthroughput screen to assess conditional lethalithy of P12 Ichikawa cells grown in RPMI1640 with untreated serum (RPMI+s) (AID 1963881); conditions: ATP luminescence, 48 h; viability; series mostly up to 45.8 µM; also: nearly all actives have a fitted effect of over 35% in size;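 as to viability: 100% = DMSO wells and 0% = empty wells without cells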
Inconclusive results are not listed. Calls of active or inactive are those of the source. Calls follow the shape of the dose curve; as a rule, active = well fitted cell-killing curve with a large enough effect; inconclusive = small, poorly fitted or top-dose-only effect; inactive = flat fitted curve, though single readings scatter.
Could you please pick one outcome from this set? active, inactive

Study these solved cases before continuing.
### Prompt For this molecule, state the assay outcome: `CNC(=O)c1cc(Oc2ccc(NC(=O)Nc3cc(C(C)(C)C)nn3-c3ccc4ncccc4c3)c(F)c2)ccn1`
### Response inactive

### Prompt Would you mind doing `CC(C)c1ccc2c(c1)c(SC(C)(C)C)c(CC(C)(C)C(=O)O)n2Cc1ccc(Cl)cc1` as well?
### Response inactive

### Prompt Next entry: `COc1ncc(-c2ccc3nccc(-c4ccnnc4)c3c2)cc1NS(=O)(=O)c1ccc(F)cc1F`
### Response active

### Prompt Next record, please: `CCOC(=O)C=C[C@H](C[C@@H]1CCNC1=O)NC(=O)[C@@H](CC(=O)[C@@H](NC(=O)c1cc(C)on1)C(C)C)Cc1ccc(F)cc1`
### Response inactive

### Prompt One more molecule: `COc1cc2nc(N3CCCN(C)CC3)nc(NC3CCN(Cc4ccccc4)CC3)c2cc1OC`
### Response active

More entries:
### Prompt What call does the record list for `O=C(C=Cc1c(C(=O)O)[nH]c2cc(Cl)cc(Cl)c12)Nc1ccccc1` ?
### Response inactive

### Prompt Queued: `CN(C)C/C=C/C(=O)Nc1ccc(C(=O)Nc2cccc(Nc3ncc(Cl)c(-c4c[nH]c5ccccc45)n3)c2)cc1`
### Response active

### Prompt Same question, `FC(F)(F)c1ccc(CNc2ccc(Cc3c[nH]c4ncc(Cl)cc34)cn2)cn1` this time
### Response active

### Prompt Could you do the same for `CCOC(=O)N1c2ccc(C(F)(F)F)cc2[C@@H](N(Cc2cc(C(F)(F)F)cc(C(F)(F)F)c2)C(=O)OC)C[C@H]1CC` , please?
### Response inactive

### Prompt Try this molecule next: `O=c1cc(O)c(Cl)c[nH]1`
### Response active
